- System: A549
- protocol_summary: Growth inhibition of human A549/ATCC cells assessed as cell growth at 10 uM by sulforhodamine B assay
- Type: functional
- condition_details: read-out: Activity

smiles_code | units_symbol | growth at 10 µM
CC1(C)C[C@@H](O)[C@]2(C(=O)O)CC[C@]3(C)C(=CC[C@@H]4[C@@]5(C)C/C(=C\C=C\c6ccccc6)C(=O)C(C)(C)[C@@H]5CC[C@]43C)[C@@H]2C1 | % | 22.7
COc1cc(/C=C2\C[C@]3(C)[C@H]4CC=C5[C@@H]6CC(C)(C)C[C@@H](O)[C@]6(C(=O)O)CC[C@@]5(C)[C@]4(C)CC[C@H]3C(C)(C)C2=O)ccc1O | % | 71.8
CC(C)=CC(=O)O[C@@H]1CC(C)(C)C[C@H]2C3=CC[C@@H]4[C@@]5(C)CC[C@H](O)C(C)(C)[C@@H]5CC[C@@]4(C)[C@]3(C)CC[C@@]12C(=O)O | % | 23.5
CC(C)=CC(=O)O[C@@H]1CC(C)(C)C[C@H]2C3=CC[C@@H]4[C@@]5(C)CCC(=O)C(C)(C)[C@@H]5CC[C@@]4(C)[C@]3(C)CC[C@@]12C(=O)O | % | 22.2
C/C=C(/C)C(=O)O[C@@H]1CC(C)(C)C[C@H]2C3=CC[C@@H]4[C@@]5(C)CCC(=O)C(C)(C)[C@@H]5CC[C@@]4(C)[C@]3(C)CC[C@@]12C(=O)O | % | 39.2

* * *

- Test system: NCI-H226
- protocol_summary: Growth inhibition of human NCI-H226 cells by sulforhodamine B assay
- Type: functional
- condition_details: read-out: pGI50 (converted)
observation_type: GI50 (µM)

smiles_code | observation_type | meas_value
C/C=C(/C)C(=O)O[C@@H]1CC(C)(C)C[C@H]2C3=CC[C@@H]4[C@@]5(C)CCC(=O)C(C)(C)[C@@H]5CC[C@@]4(C)[C@]3(C)CC[C@@]12C(=O)O | GI50 | 4.68
CC(C)=CC(=O)O[C@@H]1CC(C)(C)C[C@H]2C3=CC[C@@H]4[C@@]5(C)CC[C@H](O)C(C)(C)[C@@H]5CC[C@@]4(C)[C@]3(C)CC[C@@]12C(=O)O | GI50 | 5.13
C/C=C(/C)C(=O)O[C@@H]1CC(C)(C)C[C@H]2C3=CC[C@@H]4[C@@]5(C)CC[C@H](O)C(C)(C)[C@@H]5CC[C@@]4(C)[C@]3(C)CC[C@@]12C(=O)O | GI50 | 1.7
CC1(C)C[C@@H](O)[C@]2(C(=O)O)CC[C@]3(C)C(=CC[C@@H]4[C@@]5(C)C/C(=C\C=C\c6ccccc6)C(=O)C(C)(C)[C@@H]5CC[C@]43C)[C@@H]2C1 | GI50 | 2.75
CC(C)=CC(=O)O[C@@H]1CC(C)(C)C[C@H]2C3=CC[C@@H]4[C@@]5(C)CCC(=O)C(C)(C)[C@@H]5CC[C@@]4(C)[C@]3(C)CC[C@@]12C(=O)O | GI50 | 5.62

* * *

- System: NCI-H522
- protocol_summary: Growth inhibition of human NCI-H522 cells by sulforhodamine B assay
- Type: functional
- condition_details: read-out: LC50 (the source's name)

smiles_code | limit_qualifier | CC50 / µM
CC(C)=CC(=O)O[C@@H]1CC(C)(C)C[C@H]2C3=CC[C@@H]4[C@@]5(C)CC[C@H](O)C(C)(C)[C@@H]5CC[C@@]4(C)[C@]3(C)CC[C@@]12C(=O)O | = | 71.3
C/C=C(/C)C(=O)O[C@@H]1CC(C)(C)C[C@H]2C3=CC[C@@H]4[C@@]5(C)CC[C@H](O)C(C)(C)[C@@H]5CC[C@@]4(C)[C@]3(C)CC[C@@]12C(=O)O | = | 32.4
CC1(C)C[C@@H](O)[C@]2(C(=O)O)CC[C@]3(C)C(=CC[C@@H]4[C@@]5(C)C/C(=C\C=C\c6ccccc6)C(=O)C(C)(C)[C@@H]5CC[C@]43C)[C@@H]2C1 | = | 29.4
C/C=C(/C)C(=O)O[C@@H]1CC(C)(C)C[C@H]2C3=CC[C@@H]4[C@@]5(C)CCC(=O)C(C)(C)[C@@H]5CC[C@@]4(C)[C@]3(C)CC[C@@]12C(=O)O | > | 100
CC(C)=CC(=O)O[C@@H]1CC(C)(C)C[C@H]2C3=CC[C@@H]4[C@@]5(C)CCC(=O)C(C)(C)[C@@H]5CC[C@@]4(C)[C@]3(C)CC[C@@]12C(=O)O | > | 100

* * *

Listed below: growth at 1 µM values for each entry.
- System: SNB-19
- protocol_summary: Growth inhibition of human SNB19 cells assessed as cell growth at 10^-6 M by sulforhodamine B assay
- Type: functional
- condition_details: read-out: Activity
observation_type: growth at 1 µM (%)

compound | observation_type | units_symbol | meas_value
C/C=C(/C)C(=O)O[C@@H]1CC(C)(C)C[C@H]2C3=CC[C@@H]4[C@@]5(C)CC[C@H](O)C(C)(C)[C@@H]5CC[C@@]4(C)[C@]3(C)CC[C@@]12C(=O)O [Reduced Lantadene A] | growth at 1 µM | % | 85
C/C=C(/C)C(=O)O[C@@H]1CC(C)(C)C[C@H]2C3=CC[C@@H]4[C@@]5(C)CCC(=O)C(C)(C)[C@@H]5CC[C@@]4(C)[C@]3(C)CC[C@@]12C(=O)O [LANTADENE A] | growth at 1 µM | % | 91
CC(C)=CC(=O)O[C@@H]1CC(C)(C)C[C@H]2C3=CC[C@@H]4[C@@]5(C)CCC(=O)C(C)(C)[C@@H]5CC[C@@]4(C)[C@]3(C)CC[C@@]12C(=O)O | growth at 1 µM | % | 87
CC(C)=CC(=O)O[C@@H]1CC(C)(C)C[C@H]2C3=CC[C@@H]4[C@@]5(C)CC[C@H](O)C(C)(C)[C@@H]5CC[C@@]4(C)[C@]3(C)CC[C@@]12C(=O)O [Reduced Lantadene B] | growth at 1 µM | % | 86
CC1(C)C[C@@H](O)[C@]2(C(=O)O)CC[C@]3(C)C(=CC[C@@H]4[C@@]5(C)C/C(=C\C=C\c6ccccc6)C(=O)C(C)(C)[C@@H]5CC[C@]43C)[C@@H]2C1 | growth at 1 µM | % | 88

* * *

- System: SW-620
- protocol_summary: Growth inhibition of human SW620 cells assessed as cell growth at 10^-8 M by sulforhodamine B assay
- Format: functional
- condition_details: read-out: Activity
Quick reference for growth at 0.01 µM among some compounds
observation_type: growth at 0.01 µM (%)

smiles_code | assay_target | observation_type | meas_value
CC1(C)C[C@@H](O)[C@]2(C(=O)O)CC[C@]3(C)C(=CC[C@@H]4[C@@]5(C)C/C(=C\C=C\c6ccccc6)C(=O)C(C)(C)[C@@H]5CC[C@]43C)[C@@H]2C1 | SW-620 | growth at 0.01 µM | 99
CC(C)=CC(=O)O[C@@H]1CC(C)(C)C[C@H]2C3=CC[C@@H]4[C@@]5(C)CCC(=O)C(C)(C)[C@@H]5CC[C@@]4(C)[C@]3(C)CC[C@@]12C(=O)O | SW-620 | growth at 0.01 µM | 100
C/C=C(/C)C(=O)O[C@@H]1CC(C)(C)C[C@H]2C3=CC[C@@H]4[C@@]5(C)CC[C@H](O)C(C)(C)[C@@H]5CC[C@@]4(C)[C@]3(C)CC[C@@]12C(=O)O | SW-620 | growth at 0.01 µM | 99
CC(C)=CC(=O)O[C@@H]1CC(C)(C)C[C@H]2C3=CC[C@@H]4[C@@]5(C)CC[C@H](O)C(C)(C)[C@@H]5CC[C@@]4(C)[C@]3(C)CC[C@@]12C(=O)O | SW-620 | growth at 0.01 µM | 102
C/C=C(/C)C(=O)O[C@@H]1CC(C)(C)C[C@H]2C3=CC[C@@H]4[C@@]5(C)CCC(=O)C(C)(C)[C@@H]5CC[C@@]4(C)[C@]3(C)CC[C@@]12C(=O)O | SW-620 | growth at 0.01 µM | 100

* * *

- Test system: K562
- protocol_summary: Growth inhibition of human K562 cells by sulforhodamine B assay
- Format: functional
- condition_details: read-out: pLC50 (converted)
observation_type: LC50

smiles_code | meas_value
CC(C)=CC(=O)O[C@@H]1CC(C)(C)C[C@H]2C3=CC[C@@H]4[C@@]5(C)CCC(=O)C(C)(C)[C@@H]5CC[C@@]4(C)[C@]3(C)CC[C@@]12C(=O)O | > 100 µM
C/C=C(/C)C(=O)O[C@@H]1CC(C)(C)C[C@H]2C3=CC[C@@H]4[C@@]5(C)CC[C@H](O)C(C)(C)[C@@H]5CC[C@@]4(C)[C@]3(C)CC[C@@]12C(=O)O | > 100 µM
C/C=C(/C)C(=O)O[C@@H]1CC(C)(C)C[C@H]2C3=CC[C@@H]4[C@@]5(C)CCC(=O)C(C)(C)[C@@H]5CC[C@@]4(C)[C@]3(C)CC[C@@]12C(=O)O | > 100 µM
CC1(C)C[C@@H](O)[C@]2(C(=O)O)CC[C@]3(C)C(=CC[C@@H]4[C@@]5(C)C/C(=C\C=C\c6ccccc6)C(=O)C(C)(C)[C@@H]5CC[C@]43C)[C@@H]2C1 | > 100 µM
CC(C)=CC(=O)O[C@@H]1CC(C)(C)C[C@H]2C3=CC[C@@H]4[C@@]5(C)CC[C@H](O)C(C)(C)[C@@H]5CC[C@@]4(C)[C@]3(C)CC[C@@]12C(=O)O | > 100 µM
